What pIC50 was measured for each of the following?
Target: Prostaglandin G/H synthase 1 (Oryctolagus cuniculus, UniProt O97554)
Sequence (O97554 whole entry): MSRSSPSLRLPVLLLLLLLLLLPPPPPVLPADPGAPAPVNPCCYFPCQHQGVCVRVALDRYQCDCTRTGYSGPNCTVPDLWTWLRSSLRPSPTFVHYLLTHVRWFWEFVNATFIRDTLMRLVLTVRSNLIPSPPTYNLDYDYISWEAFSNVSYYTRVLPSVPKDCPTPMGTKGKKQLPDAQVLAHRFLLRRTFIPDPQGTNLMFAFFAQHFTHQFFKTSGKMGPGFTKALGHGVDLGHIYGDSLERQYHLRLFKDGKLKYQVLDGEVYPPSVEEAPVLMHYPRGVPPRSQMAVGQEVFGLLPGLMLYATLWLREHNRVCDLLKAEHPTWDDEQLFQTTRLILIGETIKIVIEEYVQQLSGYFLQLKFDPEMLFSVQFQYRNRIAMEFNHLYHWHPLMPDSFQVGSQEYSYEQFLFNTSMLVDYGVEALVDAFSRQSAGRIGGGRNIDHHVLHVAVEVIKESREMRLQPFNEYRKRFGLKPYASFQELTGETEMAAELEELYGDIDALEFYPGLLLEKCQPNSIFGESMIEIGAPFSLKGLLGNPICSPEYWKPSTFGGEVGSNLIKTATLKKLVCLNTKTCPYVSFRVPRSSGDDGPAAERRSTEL
Assay: Inhibition of COX-1 in rabbit peripheral venous blood assessed as formation of 12-hydroxyheptadecatrienoic acid after 24 hrs by HPLC in presence of calcium ionophore A23187
Structures can show the parent of a compound that is named as a salt.
The value called pIC50 is obtained by taking minus log10 of the concentration in mol/L.

pIC50 reading for `CS(=O)(=O)c1ccc(/C=C2/C(=O)Nc3ccccc32)cc1` : 5.03

pIC50 reading for `NS(=O)(=O)c1ccc(/C=C2/C(=O)Nc3ccc(F)cc32)cc1` : 6.21

pIC50 reading for `CS(=O)(=O)c1ccc(/C=C2/C(=O)Nc3cc(Cl)ccc32)cc1` : 6.62

pIC50 reading for `NS(=O)(=O)c1ccc(/C=C2/C(=O)Nc3ccc(Cl)cc32)cc1` : 6.80

pIC50 reading for `CS(=O)(=O)c1ccc(/C=C2/C(=O)Nc3ccc(Br)cc32)cc1` : 6.96

pIC50 reading for CC(C)(C)c1cc(/C=C2\SC(N)=NC2=O)cc(C(C)(C)C)c1O [DARBUFELONE MESYLATE] : 4.42

pIC50 reading for `CS(=O)(=O)c1ccc(/C=C2/C(=O)Nc3ccc([N+](=O)[O-])cc32)cc1` : 6.30

pIC50 reading for `NC(=O)N1C(=O)/C(=C(\O)c2cccs2)c2cc(Cl)ccc21` : 5.59

* * *

What IC50 was measured for each of the following?
Molecular target: Prostaglandin G/H synthase 2 (Oryctolagus cuniculus)
Sequence (O02768 whole entry): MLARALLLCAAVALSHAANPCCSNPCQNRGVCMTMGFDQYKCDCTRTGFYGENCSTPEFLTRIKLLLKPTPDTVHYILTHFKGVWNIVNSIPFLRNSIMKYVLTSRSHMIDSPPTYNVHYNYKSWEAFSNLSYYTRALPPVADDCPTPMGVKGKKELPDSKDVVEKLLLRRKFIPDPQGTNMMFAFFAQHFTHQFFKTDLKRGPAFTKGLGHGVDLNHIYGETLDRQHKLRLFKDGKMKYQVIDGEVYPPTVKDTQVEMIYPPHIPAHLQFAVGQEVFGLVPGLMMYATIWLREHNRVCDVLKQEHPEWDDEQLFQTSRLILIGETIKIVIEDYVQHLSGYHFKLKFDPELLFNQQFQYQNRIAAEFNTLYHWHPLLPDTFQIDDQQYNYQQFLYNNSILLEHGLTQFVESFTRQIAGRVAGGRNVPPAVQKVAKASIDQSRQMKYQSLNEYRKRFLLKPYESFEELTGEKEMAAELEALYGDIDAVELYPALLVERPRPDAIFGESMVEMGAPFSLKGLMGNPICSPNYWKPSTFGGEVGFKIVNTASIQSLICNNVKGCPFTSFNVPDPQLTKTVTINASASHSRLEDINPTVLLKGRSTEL
Test: Inhibition of COX-2 in rabbit peripheral venous blood assessed as formation of 12-hydroxyheptadecatrienoic acid after 24 hrs in by HPLC presence of calcium ionophore […] and lipopolysaccharide
Structures can show the parent of a compound that is named as a salt.
Express it in µM; write the number only.

IC50 reading for `CS(=O)(=O)c1ccc(/C=C2/C(=O)Nc3ccc([N+](=O)[O-])cc32)cc1` : 3.29

IC50 reading for `CS(=O)(=O)c1ccc(/C=C2/C(=O)Nc3ccccc32)cc1` : 5.52

IC50 reading for `CS(=O)(=O)c1ccc(/C=C2/C(=O)Nc3ccc(Br)cc32)cc1` : 0.1

IC50 reading for `CS(=O)(=O)c1ccc(/C=C2/C(=O)Nc3cc(Cl)ccc32)cc1` : 2.39

IC50 reading for `CS(=O)(=O)c1ccc(/C=C2/C(=O)Nc3ccc(Cl)cc32)cc1` : 3.82

IC50 reading for `NS(=O)(=O)c1ccc(/C=C2/C(=O)Nc3ccc([N+](=O)[O-])cc32)cc1` : 3.72

IC50 reading for `NS(=O)(=O)c1ccc(/C=C2/C(=O)Nc3ccc(Cl)cc32)cc1` : 3.31

IC50 reading for CC(C)(C)c1cc(/C=C2\SC(N)=NC2=O)cc(C(C)(C)C)c1O [DARBUFELONE MESYLATE] : 0.11

IC50 reading for `NS(=O)(=O)c1ccc(/C=C2/C(=O)Nc3ccc(Br)cc32)cc1` : 20.9

IC50 reading for `NS(=O)(=O)c1ccc(/C=C2/C(=O)Nc3ccc(F)cc32)cc1` : 0.18

* * *

What pIC50 was measured for each of the following?
Molecular target: Prostaglandin G/H synthase 1 (Oryctolagus cuniculus)
Assay: Inhibition of COX-1 in rabbit peripheral venous blood assessed as formation of 12-hydroxyheptadecatrienoic acid after 24 hrs by HPLC in presence of calcium ionophore A23187
The value called pIC50 is obtained by taking minus log10 of the concentration in mol/L.

Bench note, Prostaglandin G/H synthase 1 (Oryctolagus cuniculus): entry `NS(=O)(=O)c1ccc(/C=C2/C(=O)Nc3ccc(Br)cc32)cc1` , its pIC50 = 4.61

Bench note, Prostaglandin G/H synthase 1 (Oryctolagus cuniculus): entry `NS(=O)(=O)c1ccc(/C=C2/C(=O)Nc3ccc([N+](=O)[O-])cc32)cc1` , its pIC50 = 6.85

Bench note, Prostaglandin G/H synthase 1 (Oryctolagus cuniculus): entry `CS(=O)(=O)c1ccc(/C=C2/C(=O)Nc3ccc(F)cc32)cc1` , its pIC50 = 5.05
